Provenance of the data: the supplement of paper PMC10065799

- target_or_test_system: Jak2 (UniProt O60674)
- Sequence (O60674 whole entry, looked up): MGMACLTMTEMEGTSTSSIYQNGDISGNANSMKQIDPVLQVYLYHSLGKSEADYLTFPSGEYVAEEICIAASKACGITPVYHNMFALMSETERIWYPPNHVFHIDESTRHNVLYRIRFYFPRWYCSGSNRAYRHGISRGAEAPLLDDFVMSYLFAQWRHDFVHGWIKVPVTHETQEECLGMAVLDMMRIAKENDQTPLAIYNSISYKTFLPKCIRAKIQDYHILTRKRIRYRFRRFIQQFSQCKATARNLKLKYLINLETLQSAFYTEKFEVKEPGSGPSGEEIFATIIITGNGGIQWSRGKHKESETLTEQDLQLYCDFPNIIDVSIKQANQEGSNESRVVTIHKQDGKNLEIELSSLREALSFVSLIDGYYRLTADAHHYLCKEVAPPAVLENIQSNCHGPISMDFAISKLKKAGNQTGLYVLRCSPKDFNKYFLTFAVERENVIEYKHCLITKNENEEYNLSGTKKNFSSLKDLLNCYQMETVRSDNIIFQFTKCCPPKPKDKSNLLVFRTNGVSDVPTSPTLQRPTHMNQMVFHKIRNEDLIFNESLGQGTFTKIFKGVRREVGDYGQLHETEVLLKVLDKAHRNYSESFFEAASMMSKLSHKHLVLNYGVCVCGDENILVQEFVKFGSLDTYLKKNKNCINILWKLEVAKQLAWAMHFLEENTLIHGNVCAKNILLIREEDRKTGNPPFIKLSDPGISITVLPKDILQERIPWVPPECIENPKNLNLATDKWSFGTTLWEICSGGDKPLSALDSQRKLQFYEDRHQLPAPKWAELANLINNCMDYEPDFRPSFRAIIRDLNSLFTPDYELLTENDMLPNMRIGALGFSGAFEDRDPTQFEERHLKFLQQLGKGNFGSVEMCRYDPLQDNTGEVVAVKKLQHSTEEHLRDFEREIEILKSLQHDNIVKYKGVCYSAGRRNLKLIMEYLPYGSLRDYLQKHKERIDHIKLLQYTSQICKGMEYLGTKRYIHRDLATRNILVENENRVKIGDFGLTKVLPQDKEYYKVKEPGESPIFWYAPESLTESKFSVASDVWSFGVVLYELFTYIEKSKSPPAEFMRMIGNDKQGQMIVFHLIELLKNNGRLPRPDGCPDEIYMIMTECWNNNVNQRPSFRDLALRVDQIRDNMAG
- test: phosphorylation enrichment, bacterial display (enrichment ratio); higher = better substrate or ligand; peptides without Tyr show the background;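 also: 11-residue human phosphosite peptides and single-mutation variants displayed on the E. coli surface, counted by deep sequencing, each peptide's frequency after selection divided by its frequency in the unselected input library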;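 also: frequency after pTyr selection over input frequency; kinase dosed for 20-30% of maximal phosphorylation in three min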
Label no if phosphorylation enrichment falls below 1; label yes in every other case.

sequence_chain: KRGIDYILWHM [FRMD1_Y225_R228W]
assigned_label: yes

stdin: Assess whether reported phosphorylation enrichment for PDDPDYSLVDD [PSTPIP2_Y323_N322D] sits at 1 or higher.
stdout: yes

stdin: Assess whether reported phosphorylation enrichment for ITLPIYTKESE [ANK2_Y1455] sits at 1 or higher.
stdout: yes

* * *

- Test system: c-Abl (mouse)
- test: phosphorylation enrichment, bacterial display (enrichment ratio); higher = better substrate or ligand; peptides without Tyr show the background
quantity_measured: phosphorylation enrichment
Form field (numeric): enter value without unit.

Some entries whose results are on file:
sequence_chain: AAGGRYDGLVG [HARS1_Y363]
result_number: 0.538

sequence_chain: LLKKVYLMLDN [STAT1_Y203_M202V]
result_number: 1.34

sequence_chain: AAQNCYKVTNA [TPI1_Y105_G110A]
result_number: 0.466

stdin: Give recorded phosphorylation enrichment. EDASEYFENYI [PARP4_Y214]
stdout: 0.658

stdin: Give recorded phosphorylation enrichment. RFLRGYRQHAY [HLA-A_Y137_D140H]
stdout: 1.31

stdin: Give recorded phosphorylation enrichment. VMSGPYELKAL [IL1B_Y140]
stdout: 0.481

stdin: Give recorded phosphorylation enrichment. ENGPFYTSFPP [GDAP2_Y488_YF]
stdout: 8.39

stdin: Give recorded phosphorylation enrichment. RYVTRHIYNRE [HLA-DQB1_Y62_Y62H]
stdout: 0.751
